Experiment: Plasma pharmacokinetics in rats after a 30-min intravenous infusion of Kang-Ai injection
Assay type: in vivo, Sprague–Dawley rats
Conditions: male, Sprague-Dawley, rat, plasma, iv, 6 mL/kg, rat plasma; 30-min iv infusion of Kang-Ai injection 6 mL/kg; unit per footnote # for matrine and oxymatrine; read-out: AUC0–12h
ASSAY_METRIC: AUC(0-t) (µM·h)
Numbers only, in µM·h.

Enquiry: Please give the measured AUC(0-t) for this compound: "O=C1CCC[C@@H]2[C@H]3CCCN4CCC[C@@H](CN12)[C@@H]34"
Return: 68.6

---

Biological target: CYP2C9 (Homo sapiens, UniProt P11712)
Sequence (P11712 whole entry): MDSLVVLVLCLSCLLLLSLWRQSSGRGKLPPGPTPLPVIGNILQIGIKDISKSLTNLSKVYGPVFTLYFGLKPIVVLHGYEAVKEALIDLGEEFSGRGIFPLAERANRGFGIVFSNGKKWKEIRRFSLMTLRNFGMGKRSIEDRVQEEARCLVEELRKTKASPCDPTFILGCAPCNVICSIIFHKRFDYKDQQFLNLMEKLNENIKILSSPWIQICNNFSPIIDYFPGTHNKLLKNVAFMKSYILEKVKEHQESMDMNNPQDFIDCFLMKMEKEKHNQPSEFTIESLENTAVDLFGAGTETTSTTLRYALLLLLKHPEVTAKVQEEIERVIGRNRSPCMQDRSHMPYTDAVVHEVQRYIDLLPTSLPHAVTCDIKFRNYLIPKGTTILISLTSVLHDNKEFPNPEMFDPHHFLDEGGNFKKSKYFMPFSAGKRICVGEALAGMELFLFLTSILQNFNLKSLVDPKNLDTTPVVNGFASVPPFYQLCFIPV
Assay: Inhibition of recombinant CYP2C9 (probe tolbutamide)
Format: in vitro ADME
Settings: recombinant isozyme; mean ± SD of triplicate; unit not given (IC50 classes in μM); read-out: IC50 towards CYP2C9
Exercise: state measured IC50 for each of the molecules provided.

>  <MOLECULE>
CC(C)=CCC[C@](C)(O[C@@H]1O[C@H](CO)[C@@H](O)[C@H](O)[C@H]1O)[C@H]1CC[C@]2(C)[C@@H]1[C@H](O)C[C@@H]1[C@@]3(C)CC[C@H](O)C(C)(C)[C@@H]3[C@@H](O[C@@H]3O[C@H](CO)[C@@H](O)[C@H](O)[C@H]3O)C[C@]12C [Compound C6, Ginsenoside Rg1]

>  <ASSAY_METRIC>
IC50

>  <RESULT>
> 100 µM

$$$$

Enquiry: Form: Entry = CC(C)=CCC[C@](C)(O)[C@H]1CC[C@]2(C)[C@@H]1[C@H](O)C[C@@H]1[C@@]3(C)CC[C@H](O)C(C)(C)[C@@H]3[C@@H](O[C@@H]3O[C@H](CO)[C@@H](O)[C@H](O)[C@H]3O[C@@H]3O[C@H](CO)[C@@H](O)[C@H](O)[C@H]3O)C[C@]12C [Compound C7, Ginsenoside Rf] | System = CYP2C9 (Homo sapiens, UniProt P11712) | IC50 = ____
Return: > 100 µM

---

Test: Stability tests of analytes in rat plasma QC samples
Format: in vitro ADME
Conditions: rat plasma, nominal conc. 100 nM
ASSAY_METRIC: Extracted samples at 8 °C for 18 h, Mean±SD
Number first, unit second.

Please review the following examples before continuing.
>  <MOLECULE>
CC(C)=CCC[C@](C)(O[C@@H]1O[C@H](CO)[C@@H](O)[C@H](O)[C@H]1O)[C@H]1CC[C@]2(C)[C@@H]1[C@H](O)C[C@@H]1[C@@]3(C)CC[C@H](O)C(C)(C)[C@@H]3[C@@H](O[C@@H]3O[C@H](CO)[C@@H](O)[C@H](O)[C@H]3O[C@@H]3OC[C@@H](O)[C@H](O)[C@H]3O)C[C@]12C [Compound C8, Notoginsenoside R1]

>  <RESULT>
97.66 ± 12.82 nM

$$$$
>  <MOLECULE>
O=C1CCC[C@@H]2[C@H]3CCCN4CCC[C@@H](CN12)[C@@H]34 [Compound A1, Matrine]

>  <RESULT>
95.18 ± 2.64 nM

$$$$
>  <MOLECULE>
CC(C)=CCC[C@](C)(O)[C@H]1CC[C@]2(C)[C@@H]1[C@H](O)C[C@@H]1[C@@]3(C)CC[C@H](O)C(C)(C)[C@@H]3[C@@H](O[C@@H]3O[C@H](CO)[C@@H](O)[C@H](O)[C@H]3O[C@@H]3O[C@H](CO)[C@@H](O)[C@H](O)[C@H]3O)C[C@]12C [Compound C7, Ginsenoside Rf]

>  <RESULT>
93.83 ± 2.15 nM

$$$$

Now let's try a different one.
Enquiry: Please look up its Extracted samples at 8 °C for 18 h, Mean±SD: CC(C)=CCC[C@](C)(O[C@@H]1O[C@H](CO[C@@H]2O[C@@H](CO)[C@H](O)[C@H]2O)[C@@H](O)[C@H](O)[C@H]1O)[C@H]1CC[C@]2(C)[C@@H]1[C@H](O)C[C@@H]1[C@@]3(C)CC[C@H](O[C@@H]4O[C@H](CO)[C@@H](O)[C@H](O)[C@H]4O[C@@H]4O[C@H](CO)[C@@H](O)[C@H](O)[C@H]4O)C(C)(C)[C@@H]3CC[C@]12C [Compound D3, Ginsenoside Rc]
Return: 91.90 ± 3.48 nM

---

Provide the reported Extracted samples at 8 °C for 18 h, RE of each item.
Assay: Stability tests of analytes in rat plasma QC samples
Type: in vitro ADME
Conditions: rat plasma, nominal conc. 400 nM
Numbers only, in %.

These solved cases illustrate the format of a correct answer.
>  <MOLECULE>
CC(C)(O)[C@@H]1CC[C@](C)([C@H]2[C@@H](O)C[C@@]3(C)[C@@H]4C[C@H](O)[C@H]5C(C)(C)[C@@H](O[C@@H]6OC[C@@H](O)[C@H](O)[C@H]6O[C@@H]6O[C@H](CO)[C@@H](O)[C@H](O)[C@H]6O)CC[C@@]56C[C@@]46CC[C@]23C)O1 [Compound B3, Astragaloside III]

>  <UNIT_ABBREVIATION>
%

>  <Extracted samples at 8 °C for 18 h, RE>
-8.93

$$$$
>  <MOLECULE>
CC(C)=CCC[C@](C)(O[C@@H]1O[C@H](CO)[C@@H](O)[C@H](O)[C@H]1O)[C@H]1CC[C@]2(C)[C@@H]1[C@H](O)C[C@@H]1[C@@]3(C)CC[C@H](O)C(C)(C)[C@@H]3[C@@H](O[C@@H]3O[C@H](CO)[C@@H](O)[C@H](O)[C@H]3O[C@@H]3OC[C@@H](O)[C@H](O)[C@H]3O)C[C@]12C [Compound C8, Notoginsenoside R1]

>  <UNIT_ABBREVIATION>
%

>  <Extracted samples at 8 °C for 18 h, RE>
9.82

$$$$
>  <MOLECULE>
CC(C)=CCC[C@](C)(O[C@@H]1O[C@H](CO)[C@@H](O)[C@H](O)[C@H]1O)[C@H]1CC[C@]2(C)[C@@H]1[C@H](O)C[C@@H]1[C@@]3(C)CC[C@H](O[C@@H]4O[C@H](CO)[C@@H](O)[C@H](O)[C@H]4O[C@@H]4O[C@H](CO)[C@@H](O)[C@H](O)[C@H]4O)C(C)(C)[C@@H]3CC[C@]12C [Compound D2, Ginsenoside Rd]

>  <UNIT_ABBREVIATION>
%

>  <Extracted samples at 8 °C for 18 h, RE>
9.32

$$$$

Enquiry: May I ask what Extracted samples at 8 °C for 18 h, RE has been recorded for CC(C)=CCC[C@](C)(O[C@@H]1O[C@H](CO[C@@H]2O[C@@H](CO)[C@H](O)[C@H]2O)[C@@H](O)[C@H](O)[C@H]1O)[C@H]1CC[C@]2(C)[C@@H]1[C@H](O)C[C@@H]1[C@@]3(C)CC[C@H](O[C@@H]4O[C@H](CO)[C@@H](O)[C@H](O)[C@H]4O[C@@H]4O[C@H](CO)[C@@H](O)[C@H](O)[C@H]4O)C(C)(C)[C@@H]3CC[C@]12C [Compound D3, Ginsenoside Rc] ?
Return: 12.97

---

Experiment: Stability tests of analytes in rat plasma QC samples
Type: in vitro ADME
Settings: rat plasma, nominal conc. 100 nM
ASSAY_METRIC: Three freeze-thaw cycles (-80 °C ↔ 23 °C), Mean±SD (nM)
Give bare numbers, in nM.

Solved entries (count: 2):
>  <COMPOUND>
CC(C)=CCC[C@](C)(O)[C@H]1CC[C@]2(C)[C@@H]1[C@H](O)C[C@@H]1[C@@]3(C)CC[C@H](O)C(C)(C)[C@@H]3[C@@H](O[C@@H]3O[C@H](CO)[C@@H](O)[C@H](O)[C@H]3O[C@@H]3O[C@H](CO)[C@@H](O)[C@H](O)[C@H]3O)C[C@]12C [Compound C7, Ginsenoside Rf]

>  <NUMBER>
101.34

$$$$
>  <COMPOUND>
CC(C)=CCC[C@](C)(O[C@@H]1O[C@H](CO)[C@@H](O)[C@H](O)[C@H]1O)[C@H]1CC[C@]2(C)[C@@H]1[C@H](O)C[C@@H]1[C@@]3(C)CC[C@H](O)C(C)(C)[C@@H]3[C@@H](O[C@@H]3O[C@H](CO)[C@@H](O)[C@H](O)[C@H]3O[C@@H]3OC[C@@H](O)[C@H](O)[C@H]3O)C[C@]12C [Compound C8, Notoginsenoside R1]

>  <NUMBER>
97.29

$$$$

Enquiry: Need Three freeze-thaw cycles (-80 °C ↔ 23 °C), Mean±SD of CC(C)=CCC[C@](C)(O[C@@H]1O[C@H](CO[C@@H]2OC[C@H](O)[C@H](O)[C@H]2O)[C@@H](O)[C@H](O)[C@H]1O)[C@H]1CC[C@]2(C)[C@@H]1[C@H](O)C[C@@H]1[C@@]3(C)CC[C@H](O[C@@H]4O[C@H](CO)[C@@H](O)[C@H](O)[C@H]4O[C@@H]4O[C@H](CO)[C@@H](O)[C@H](O)[C@H]4O)C(C)(C)[C@@H]3CC[C@]12C [Compound D4, Ginsenoside Rb2] , thanks.
Return: 104.61
